Data provenance: DBAASP

System: Pseudomonas aeruginosa PAO1
experimentDescription: ≥ marks a high value that may be exact or a test limit, other limits are often not marked, values filed in µg/mL are converted to µM
Hi there, I'd appreciate the recorded MIC for every entry that follows.
Note: unit µM is implicit; provide only the numeric part.

Param readout= MIC; system= Pseudomonas aeruginosa PAO1; entry= `CC[C@H](C)[C@H](N)C(=O)N[C@@H](CCCN=C(N)N)C(=O)N[C@@H](CCCN=C(N)N)C(=O)N[C@H](C(=O)N[C@H](C(=O)N[C@@H](CCCN=C(N)N)C(=O)N[C@@H](CCCCN)C(=O)N[C@H](C(=O)N[C@H](C(=O)N[C@@H](Cc1cnc[nH]1)C(=O)N[C@H](C(=O)N[C@H](C(=O)N[C@@H](CCCCN)C(=O)N[C@@H](CCCCN)C(=O)O)[C@@H](C)CC)[C@@H](C)CC)[C@@H](C)CC)[C@@H](C)CC)[C@@H](C)CC)[C@@H](C)CC` ; returns value. 2.78

Param readout= MIC; system= Pseudomonas aeruginosa PAO1; entry= `CC(C)C[C@H](NC(=O)[C@H](CC(C)C)NC(=O)[C@H](CCCCN)NC(=O)CNC(=O)[C@H](CC(C)C)NC(=O)[C@H](CC(C)C)NC(=O)[C@H](CO)NC(=O)[C@H](C)NC(=O)[C@H](CC(C)C)NC(=O)[C@H](CO)NC(=O)[C@H](CC(C)C)NC(=O)[C@H](CC(C)C)NC(=O)CN)C(N)=O` ; returns value. 8.8

* * *

System: Escherichia coli
experimentDescription: ≥ marks a high value that may be exact or a test limit, other limits are often not marked, values filed in µg/mL are converted to µM
metricName: MIC (µM)
Note: unit µM is implicit; provide only the numeric part.

I'd like to know its MIC. The molecule in question is NCCCCC(N)C(=O)NC(Cc1ccc(O)cc1)C(=O)NC(CCCN=C(N)N)C(=O)O (stereo not given) [KYR] 1

I'd like to know its MIC. The molecule in question is CC[C@H](C)[C@H](NC(=O)[C@@H](NC(=O)[C@H](CCCCN)NC(=O)[C@H](C)NC(=O)[C@@H](NC(=O)[C@H](CCCCN)NC(=O)[C@H](CCCCN)NC(=O)[C@@H](NC(=O)[C@@H](NC(=O)[C@H](CCCCN)NC(=O)[C@H](Cc1ccccc1)NC(=O)[C@H](CC(C)C)NC(=O)CN)C(C)C)[C@@H](C)CC)C(C)C)C(C)C)C(=O)N[C@@H](CCCCN)C(=O)N[C@@H](CCCCN)C(=O)N[C@@H](CC(C)C)C(N)=O [GLFKVIKKVAKVIKKL] 55.2

I'd like to know its MIC. The molecule in question is CC[C@H](C)[C@H](NC(=O)[C@H](CCCCN)NC(=O)[C@@H]1CCCN1C(=O)[C@@H](NC(=O)[C@H](CC(C)C)NC(=O)[C@H](C)NC(=O)[C@H](Cc1ccccc1)NC(=O)[C@H](Cc1ccccc1)NC(=O)CN)[C@@H](C)CC)C(=O)N[C@H](C(=O)N[C@@H](CO)C(=O)N[C@@H](CO)C(=O)N1CCC[C@H]1C(=O)N[C@@H](CC(C)C)C(=O)N[C@@H](Cc1ccccc1)C(=O)N[C@@H](CCCCN)C(=O)N[C@H](C(=O)N[C@@H](CC(C)C)C(N)=O)[C@@H](C)O)[C@@H](C)CC [GFFALIPKIISSPLFKTL] 17.1

I'd like to know its MIC. The molecule in question is CC(C)C[C@H](NC(=O)[C@H](CCCCN)NC(=O)[C@H](Cc1ccccc1)NC(=O)[C@@H](NC(=O)[C@@H](NC(=O)CNC(=O)[C@H](CC(C)C)NC(=O)[C@@H](N)Cc1ccccc1)C(C)C)C(C)C)C(=O)N[C@@H](C)C(=O)N[C@@H](CO)C(=O)N[C@@H](CCCCN)C(=O)N[C@H](C(=O)N[C@@H](Cc1ccccc1)C(=O)N1CCC[C@H]1C(=O)N[C@@H](C)C(=O)N[C@H](C(=O)N[C@@H](Cc1ccccc1)C(=O)NCC(=O)N[C@@H](CCCCN)C(=O)N[C@H](C(N)=O)C(C)C)C(C)C)C(C)C [FLGVVFKLASKVFPAVFGKV] 29.7

I'd like to know its MIC. The molecule in question is CC(C)C[C@H](NC(=O)[C@@H](N)Cc1ccccc1)C(=O)NCC(=O)N[C@H](C(=O)N[C@H](C(=O)N[C@@H](Cc1ccccc1)C(=O)N[C@@H](CCCCN)C(=O)N[C@@H](CCCCN)C(=O)N[C@@H](C)C(=O)N[C@@H](CO)C(=O)N[C@@H](CCCCN)C(=O)N[C@H](C(=O)N[C@@H](Cc1ccccc1)C(=O)N1CCC[C@H]1C(=O)N[C@@H](CCCCN)C(=O)N[C@H](C(=O)N[C@@H](Cc1ccccc1)C(=O)NCC(=O)N[C@@H](CCCCN)C(=O)N[C@H](C(=O)O)C(C)C)C(C)C)C(C)C)C(C)C)C(C)C [FLGVVFKKASKVFPKVFGKV] 57.5

I'd like to know its MIC. The molecule in question is CC[C@H](C)[C@H](NC(=O)[C@@H](NC(=O)CN)C(C)C)C(=O)N[C@@H](CC(=O)O)C(=O)N[C@@H](C)C(=O)N[C@@H](C)C(=O)N[C@@H](CCCCN)C(=O)N[C@@H](CCCCN)C(=O)N[C@@H](Cc1c[nH]c2ccccc12)C(=O)N[C@@H](CC(N)=O)C(=O)N[C@H](C(=O)N[C@@H](CC(C)C)C(=O)N[C@@H](CCCCN)C(=O)N[C@@H](CC(N)=O)C(=O)N[C@@H](CC(C)C)C(=O)N[C@@H](Cc1ccccc1)C(N)=O)C(C)C [GVIDAAKKVVNVLKNLF] 54.7

I'd like to know its MIC. The molecule in question is CC(C)C[C@H](NC(=O)[C@H](CCCCN)NC(=O)[C@H](Cc1c[nH]c2ccccc12)NC(=O)[C@H](CCCCN)NC(=O)[C@H](CC(C)C)NC(=O)[C@H](CCCCN)NC(=O)[C@H](Cc1c[nH]c2ccccc12)NC(=O)[C@H](CCCCN)NC(=O)[C@H](CC(C)C)NC(=O)[C@H](CCCCN)NC(=O)[C@@H](N)Cc1c[nH]c2ccccc12)C(=O)N[C@@H](CCCCN)C(N)=O [WKLKWKLKWKLK] 2

I'd like to know its MIC. The molecule in question is CC[C@H](C)[C@H](NC(=O)[C@H](CC(C)C)NC(=O)[C@H](C)NC(=O)[C@H](CC(C)C)NC(=O)[C@H](CC(C)C)NC(=O)CN)C(=O)N[C@@H](CO)C(=O)N[C@@H](Cc1c[nH]c2ccccc12)C(=O)N[C@H](C(=O)N[C@@H](CCCCN)C(=O)N[C@@H](CCCN=C(N)N)C(=O)N[C@@H](CCCCN)C(=O)N[C@@H](CCCN=C(N)N)C(=O)N[C@@H](CCC(N)=O)C(=O)N[C@@H](CCC(N)=O)C(N)=O)[C@@H](C)CC [GLLALISWIKRKRQQ] 39.1

* * *

Tested on: Staphylococcus aureus USA 300
experimentDescription: ≥ marks a high value that may be exact or a test limit, other limits are often not marked, values filed in µg/mL are converted to µM
Hi there, I'd appreciate the recorded MIC for every entry that follows.
Note: unit µM is implicit; provide only the numeric part.

Param readout= MIC; system= Staphylococcus aureus USA 300; entry= CC(C)C[C@H](NC(=O)[C@H](CC(C)C)NC(=O)[C@H](CCCCN)NC(=O)CNC(=O)[C@H](CC(C)C)NC(=O)[C@H](CC(C)C)NC(=O)[C@H](CO)NC(=O)[C@H](CC(C)C)NC(=O)[C@H](CO)NC(=O)[C@H](CC(C)C)NC(=O)[C@H](CC(C)C)NC(=O)CN)C(N)=O [GLLSLSLLGKLL] ; returns value. 12.5

Param readout= MIC; system= Staphylococcus aureus USA 300; entry= CC(C)C[C@H](NC(=O)[C@H](C)NC(=O)[C@H](CCCCN)NC(=O)CNC(=O)[C@H](CC(C)C)NC(=O)[C@H](C)NC(=O)[C@H](CCCCN)NC(=O)[C@H](CC(C)C)NC(=O)[C@H](C)NC(=O)[C@H](CO)NC(=O)[C@H](CC(C)C)NC(=O)[C@H](C)NC(=O)CN)C(N)=O [GALSALKALGKAL] ; returns value. 25

* * *

metricName: MIC (µM)
Note: unit µM is implicit; provide only the numeric part.

Param readout= MIC; system= Staphylococcus aureus ATCC 29213; entry= `CC[C@H](C)[C@H](NC(=O)[C@H](CCCCN)NC(=O)[C@H](CCCCN)NC(=O)[C@H](Cc1ccccc1)NC(=O)[C@H](CC(C)C)NC(=O)[C@H](CCCCN)NC(=O)[C@H](CCCCN)NC(=O)[C@@H](N)Cc1c[nH]c2ccccc12)C(=O)N[C@@H](CC(C)C)C(=O)N[C@@H](CCCCN)C(=O)N[C@@H](Cc1ccc(O)cc1)C(=O)N[C@@H](CC(C)C)C(N)=O` ; returns value. 1.49
